- TEST: Oral bioavailability in rat
- Type: ADME, organism-based
- EXPERIMENTAL SETUP: in vivo
MEASUREMENT NAME: bioavailability
Answer with the value and then the unit.

Retrieve bioavailability measured for Cc1cccc(NC(=O)c2cccc3oc(=O)[nH]c23)n1 and print it. 64%

* * *

- TEST: Volume of distribution in rat
- Format: ADME, organism-based
- EXPERIMENTAL SETUP: in vivo
MEASUREMENT NAME: Vd (L/kg)
Only the number, expressed in L/kg, is required.

Retrieve Vd measured for Cc1cccc(NC(=O)c2cccc3oc(=O)[nH]c23)n1 and print it. 0.18

* * *

- ASSAYED TARGET: Metabotropic glutamate receptor 5 (Homo sapiens)
- Sequence (P41594 whole entry): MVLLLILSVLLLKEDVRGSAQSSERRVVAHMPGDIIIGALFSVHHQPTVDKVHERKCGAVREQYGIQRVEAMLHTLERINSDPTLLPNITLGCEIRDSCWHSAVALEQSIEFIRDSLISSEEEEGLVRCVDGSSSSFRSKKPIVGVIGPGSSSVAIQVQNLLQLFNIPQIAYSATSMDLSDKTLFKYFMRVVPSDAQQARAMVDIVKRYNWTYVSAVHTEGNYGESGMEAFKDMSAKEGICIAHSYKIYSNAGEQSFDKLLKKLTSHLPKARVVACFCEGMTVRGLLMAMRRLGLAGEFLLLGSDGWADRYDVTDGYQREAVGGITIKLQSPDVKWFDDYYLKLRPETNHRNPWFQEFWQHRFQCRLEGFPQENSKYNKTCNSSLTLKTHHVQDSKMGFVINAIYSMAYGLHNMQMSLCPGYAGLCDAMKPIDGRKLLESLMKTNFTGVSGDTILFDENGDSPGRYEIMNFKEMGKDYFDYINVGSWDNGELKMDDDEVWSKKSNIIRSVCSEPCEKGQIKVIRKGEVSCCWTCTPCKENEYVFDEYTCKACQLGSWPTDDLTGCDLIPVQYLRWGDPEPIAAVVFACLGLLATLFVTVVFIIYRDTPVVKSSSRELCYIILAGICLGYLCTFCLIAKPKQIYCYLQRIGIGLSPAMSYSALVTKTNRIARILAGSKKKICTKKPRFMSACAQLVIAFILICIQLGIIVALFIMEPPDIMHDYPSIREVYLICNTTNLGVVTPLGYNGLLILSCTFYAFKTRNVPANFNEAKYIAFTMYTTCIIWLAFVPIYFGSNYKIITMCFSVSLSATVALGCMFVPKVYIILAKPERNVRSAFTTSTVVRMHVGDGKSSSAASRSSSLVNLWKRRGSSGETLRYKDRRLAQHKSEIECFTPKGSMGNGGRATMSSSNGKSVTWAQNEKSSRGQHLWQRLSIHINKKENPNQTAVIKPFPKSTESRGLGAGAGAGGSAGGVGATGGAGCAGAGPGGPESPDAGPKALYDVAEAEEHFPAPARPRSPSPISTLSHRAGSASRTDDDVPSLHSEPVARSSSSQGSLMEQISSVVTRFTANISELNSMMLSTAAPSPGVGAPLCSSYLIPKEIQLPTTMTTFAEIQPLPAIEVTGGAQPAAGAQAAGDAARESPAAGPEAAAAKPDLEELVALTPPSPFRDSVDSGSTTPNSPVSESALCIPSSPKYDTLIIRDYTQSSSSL
- TEST: Antagonist activity at mGluR5 assessed as inhibition of Ca2+ […] by FLIPR
MEASUREMENT NAME: pIC50
Expect pIC50 as a plain number equal to -log10 of the molar concentration.

Previously resolved entries follow.
| STRUCTURE | pIC50 |
| --- | --- |
| O=C(Nc1cccc(Cl)c1)c1cccc2oc(=O)[nH]c12 | 6.71 |
| O=C(Nc1cccc(Br)c1)c1cccc2oc(=O)[nH]c12 | 7.03 |
| Cc1cccc(NC(=O)c2cccc3oc(=O)[nH]c23)c1 | 6.98 |

Kindly consider the entry below.
Retrieve pIC50 measured for Cc1cccc(NC(=O)c2cccc3oc(=O)[nH]c23)n1 and print it. 7.22

* * *

Record type: Ki measurement. Applies to: Metabotropic glutamate receptor 5 (Homo sapiens, UniProt P41594)
Only the number, expressed in nM, is required.

| STRUCTURE | ASSAYED TARGET | UNIT LABEL | DATA VALUE |
| --- | --- | --- | --- |
| Cc1nc(NC(=O)c2cccc3oc(=O)[nH]c23)cs1 | Metabotropic glutamate receptor 5 (Homo sapiens, UniProt P41594) | nM | 250 |
| O=C(Nc1ccc(Cl)cc1)c1cccc2oc(=O)[nH]c12 | Metabotropic glutamate receptor 5 (Homo sapiens, UniProt P41594) | nM | 3800 |

Param request: Ki | system Metabotropic glutamate receptor 5 (Homo sapiens, UniProt P41594) | item COc1cccc(NC(=O)c2cccc3oc(=O)[nH]c23)c1 3900

Param request: Ki | system Metabotropic glutamate receptor 5 (Homo sapiens, UniProt P41594) | item O=C1Cc2cccc(C(=O)Nc3cccc(Cl)c3)c2N1 397

Param request: Ki | system Metabotropic glutamate receptor 5 (Homo sapiens, UniProt P41594) | item Cc1nccc(NC(=O)c2cccc3oc(=O)[nH]c23)n1 1970

* * *

- TEST: Clearance in rat
- Type: ADME, organism-based
- EXPERIMENTAL SETUP: in vivo
MEASUREMENT NAME: clearance (mL/min/kg)
Only the number, expressed in mL/min/kg, is required.

Retrieve clearance measured for Cc1cccc(NC(=O)c2cccc3oc(=O)[nH]c23)n1 and print it. 8.2
